Measured normalized growth of individual entries
Assay: chemical genetic growth profiling, strain panel (AID 1159580);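 note: tested at 20 µM; growth read once vehicle control cultures reached saturation at 30 °C; 1 = growth at the plate median or of vehicle wells; lower values mean less growth of the strain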
Conditions: S. cerevisiae deletion strains, growth OD, locus YFL009W, strain cdc4, hits give low values
Hit rate of the full screen: of about 5,500 compounds, about 2,000 (36%) were called active. Roughly 18% stayed inconclusive and do not appear here. Some of the results follow.
metric.name: normalized growth

{"compound": "N#C/C(N=Cc1cc(Cl)cc(Cl)c1O)=C(\\C#N)N=Cc1cc(Cl)cc(Cl)c1O", "metric.name": "normalized growth", "experimental.value": 0.931}
{"compound": "Clc1cccc(Cl)c1C1CC(c2ccccc2)=Nc2ccccc2S1 (stereo unspecified)", "metric.name": "normalized growth", "experimental.value": 0.989}
{"compound": "O=C1Nc2ccccc2/C1=C\\c1c[nH]c2ccccc12", "metric.name": "normalized growth", "experimental.value": 0.526}
{"compound": "ONC(=Nc1ccccc1Cl)c1ccccc1Cl", "metric.name": "normalized growth", "experimental.value": 0.999}
{"compound": "O=C(NC(=S)NNc1ncc(C(F)(F)F)cc1Cl)c1cccs1", "metric.name": "normalized growth", "experimental.value": 0.51}
{"compound": "O=C1Nc2ccccc2/C1=C\\c1cccc2ccccc12", "metric.name": "normalized growth", "experimental.value": 0.98}
{"compound": "CCOC(=O)NC(=S)Nc1ccc(C(C)(C)C)cc1NC(=S)NC(=O)OCC", "metric.name": "normalized growth", "experimental.value": 0.974}
{"compound": "COc1ccc(Br)c(C(=O)/C(C#N)=C/c2cccs2)c1", "metric.name": "normalized growth", "experimental.value": 0.861}
{"compound": "N/C(=N/OC(=O)c1ccc([N+](=O)[O-])cc1)c1c(Cl)cccc1Cl", "metric.name": "normalized growth", "experimental.value": 0.935}
{"compound": "C/C(=N/NC(N)=S)c1csc(-c2ccccc2)n1", "metric.name": "normalized growth", "experimental.value": 0.913}
{"compound": "Cc1ccc(OS(=O)(=O)c2c(Cl)sc(Cl)c2Br)c([N+](=O)[O-])n1", "metric.name": "normalized growth", "experimental.value": 0.961}

Sourced from PubChem BioAssay AID1159580
